What protein stability index was measured for each of the following?
- Test system: Saccharomyces cerevisiae
- protocolDetails: protein stability index of tFT-peptide fusion (C-terminal peptide) (PSI (0-1 scale)); higher = more stable (slower turnover)
- conditionParameters: genetic background: das1 deletion; temperature: 30 C
Numbers only.

Known results for sequences:
LFFFVCYLATVK :: 0.23
LCSLSIFVLFSC :: 0.209
DFWCIIVIFLFR :: 0.248
GEVLWAVLLVSC :: 0.215
GFVCFIHLFLCF :: 0.334

Could you report protein stability index for every entry in the following list?
1. SVLRCPVILLAY
2. VGIVWELGCWMG
3. FLCLLFYLSFFS
4. INHVIHAKLRFS
5. FVFLVLGPYAMF

Reply text:
[0.0735, 0.325, 0.404, 0.643, 0.354]

---

- Test system: Saccharomyces cerevisiae
- protocolDetails: protein stability index of tFT-peptide fusion (C-terminal peptide) (PSI (0-1 scale)); higher = more stable (slower turnover)
- conditionParameters: genetic background: das1 deletion; temperature: 30 C
Rule: protein stability index of 0.7 or more gives rule met; anything lower gives rule not met.

Here's what some known entries look like.
KKLDGEVLCRVK [MRPS8 C-terminal 12 aa] :: rule not met
DHIPLLTEFKIL [NGL1 C-terminal 12 aa] :: rule met
PFGKKKTGLFSL [PRM10 C-terminal 12 aa] :: rule met

Inquiry: Determine whether this sequence has protein stability index no lower than 0.7: GVAKSMGIKVVP [MRPL19 C-terminal 12 aa]
Reply text: rule not met

Inquiry: Check the entry ILEAWEKVDDSL [SNX4 C-terminal 12 aa] : does protein stability index equal or exceed 0.7?
Reply text: rule met

---

- System: Saccharomyces cerevisiae
- protocolDetails: protein stability index of tFT-peptide fusion (C-terminal peptide) (PSI (0-1 scale)); higher = more stable (slower turnover)
- conditionParameters: genetic background: wild type; temperature: 37 C
valueType: protein stability index
Give bare numbers.

KRLALVSCSICG :: 0.583
VAVYVGVGVSLG :: 0.511
TVWRRIRHACAH :: 0.365

For the 5 sequences below, give their protein stability index values.
1. LPCPPSPASLPR
2. CYSLLFVSVILF
3. IIGCIAICLMVN
4. RFCRVERAILLR
5. RVTEYHTKYKIV

Reply text:
[0.59, 0.248, 0.0405, 0.41, 0.0807]

Items follow; give protein stability index for each.
1. LVLALTPFLHSF
2. WFAHGLRHFRIL

Reply text:
0.551
0.532

---

- Tested on: Saccharomyces cerevisiae
- protocolDetails: protein stability index of tFT-peptide fusion in wild type (PSI (0-1 scale)); higher = more stable (slower turnover)
- conditionParameters: genetic background: wild type
Lab note: compare protein stability index against 0.1. Equal or greater, write y. Smaller, write n.

Examples with answers:
FKILRQKMNHQN :: y
CVVYLSCVACIN :: n

Inquiry: Is reported protein stability index greater than or equal to 0.1 here: LVVYLSCVACINI
Reply text: n

---

Could you please report measured protein stability index for the items listed next?
- System: Saccharomyces cerevisiae
- protocolDetails: protein stability index of tFT-peptide fusion (C-terminal peptide) (PSI (0-1 scale)); higher = more stable (slower turnover)
- conditionParameters: genetic background: wild type; temperature: 30 C
One number for each entry.

DRGWPHTYNTIL :: 0.639
GGCCGRVWGSVE :: 0.71
PRPISLFPLPPP :: 0.693
GTLGRMVTPAAW :: 0.636
HRAFAAGFGVWG :: 0.669

Give protein stability index for each of the items listed below.
1. RAKRPAGTSTRG
2. IVGLLGICVGRC

Reply text:
0.604
0.57

Each of the following entries comes with a recorded value; kindly state protein stability index for each.
1. WADYLWFGLNGG
2. SLRSSRSRIKKG
3. LFWFVSLWGGFA
4. PPDPPLHPPPSS

Reply text:
0.712
0.624
0.529
0.733

Answer for every listed entry: what is its protein stability index? The entries follow.
1. GGRFGLGGRLVG
2. GGCEWWSWGRGG
3. KQQRTKKKEKKR
4. RSSNNQRARPPQ
5. VPRPFILTATSE
6. FGSPFPASRFTT
7. SRGVSRGGGEVF
8. SLLLMLPFPLPG

Reply text:
0.658
0.729
0.628
0.627
0.675
0.752
0.651
0.618

Dear colleague, could you send me protein stability index for each of the items below? Thanks.
1. SVYTTGHTHTGR
2. LSDMNHVLKVFL
3. WCFVGLVNTCRI
4. TVFDPLGLPALL
5. GIRGECEFHSCD

Reply text:
0.626
0.665
0.617
0.617
0.685

For every item in the list below, what is its measured protein stability index?
1. LSVFWRGSLWTL
2. RACALLIVGAGG
3. LLVFSLLRPFLF
4. VKEHRPQRNPSH
5. PPGCPCPASTGS
6. MPFTSDAAALAP
7. LADFLGVSLLAV
8. PPPQDPTRRRRP

Reply text:
1: 0.635; 2: 0.527; 3: 0.501; 4: 0.675; 5: 0.692; 6: 0.689; 7: 0.57; 8: 0.712

Answer for every listed entry: what is its protein stability index? The entries follow.
1. GPEYPFRCRRLF
2. KNKKNKCNKVKK
3. SFYFSAFYPSIV
4. VLGGSMWLDLVC

Reply text:
1. 0.665
2. 0.726
3. 0.667
4. 0.781

# map each sequence to its protein stability index
1. PPRPHPPPRPSS
2. IFLCRNGAVFIC
3. VSCNRGAYVRSR
4. LLDTSTVTCFER

Reply text:
[0.74, 0.158, 0.678, 0.741]

Hey, quick one: what's protein stability index for each of these?
1. LPGGLSPPPFRI
2. ASPLFPLPPPPP
3. RFSKGKPVSAGG
4. TSLKGHFGIRLW
5. LTAFFPFSTFFP
6. PYFVGSGLVVLC

Reply text:
0.715
0.71
0.632
0.676
0.714
0.564

---

- Test system: Saccharomyces cerevisiae
- protocolDetails: protein stability index of tFT-peptide fusion (C-terminal peptide) (PSI (0-1 scale)); higher = more stable (slower turnover)
- conditionParameters: genetic background: wild type; temperature: 30 C
Kindly state protein stability index for each of the entries shown.
One number for each entry.

HVPRFLPFLSSL :: 0.739
GVGRGGSSRWLG :: 0.646
SPSLSPSPPSPS :: 0.67
SLRSSLFSPHHC :: 0.649
PLTSIDTDPPHI :: 0.723

# map each sequence to its protein stability index
1. APVGTPARPSLS
2. CLCRAAGARRCG
3. GVLSLFGFNTVV
4. TSMRRWSGRYGG
5. GWGSGSYRRRAV
6. QLHTTENHHRRL

Reply text:
1. 0.725
2. 0.694
3. 0.71
4. 0.743
5. 0.695
6. 0.792

---

- Test system: Saccharomyces cerevisiae
- protocolDetails: protein stability index of tFT-peptide fusion (C-terminal peptide) (PSI (0-1 scale)); higher = more stable (slower turnover)
- conditionParameters: genetic background: das1 deletion; temperature: 30 C
Field: protein stability index. Provide a value for each of the sequences that follow.

// worked examples, protein stability index included
VSTVCLDFSPFL :: 0.65
VPSPWLIRSLMS :: 0.643
SLASPPPLLILR :: 0.326
LPWLLLISFSYR :: 0.202

For every item in the list below, what is its measured protein stability index?
1. SSFDFVVSLCIY
2. TPVIPLIRVRDC
3. RHIPSIILAHVV
4. LVFPPVPSLVLC

Reply text:
0.39
0.568
0.585
0.277

---

- Test system: Saccharomyces cerevisiae
- protocolDetails: protein stability index of tFT-peptide fusion (C-terminal peptide) (PSI (0-1 scale)); higher = more stable (slower turnover)
- conditionParameters: genetic background: das1 deletion; temperature: 30 C
Returns one of YES or NO; YES when protein stability index is >= 0.7.

YKELVKKIESKN [CIT1 C-terminal 12 aa] :: YES
PPFDFRLLFLLV [YGL165C C-terminal 12 aa] :: NO
KKKKNASTCTIL [RSR1 C-terminal 12 aa] :: YES
FSIVALEVWRVG [OXR1 C-terminal 12 aa] :: NO
FGWFDMNMEQGF [SEF1 C-terminal 12 aa] :: YES
SRFEVACEQKAA [BSC2 C-terminal 12 aa] :: NO

Inquiry: State whether the measured protein stability index reaches 0.7, counting equality as reaching it, for LVFALLTCFEDG [YDR209C C-terminal 12 aa]
Reply text: NO

Inquiry: Assess whether reported protein stability index for ISKVSNTRVCCT [YAL004W C-terminal 12 aa] sits at 0.7 or higher.
Reply text: NO

Inquiry: Could you tell me if the measured protein stability index of ATYLNKSDNQVQ [YLR446W C-terminal 12 aa] reaches 0.7 or more?
Reply text: NO

Inquiry: Could you verify whether the entry EDTVNDKANFEG [STL1 C-terminal 12 aa] shows protein stability index of no less than 0.7?
Reply text: NO

Inquiry: Entry YFVNNIIVRIQS [YKL118W C-terminal 12 aa] : is its protein stability index no less than 0.7?
Reply text: NO

Inquiry: State whether the measured protein stability index reaches 0.7, counting equality as reaching it, for LLEGIIIKLFLY [YDL011C C-terminal 12 aa]
Reply text: NO

Inquiry: Check if protein stability index >= 0.7 (inclusive). Item: TAAQILKKQNRL [YDR541C C-terminal 12 aa]
Reply text: NO

Values from the supplement of paper PMC10724198
